- Test system: Human immunodeficiency virus 1
- measurement.description: Antiviral activity against HIV-1 NL4-3 infected in human U937 cells assessed as suppression of viral replication by measuring reduction in p24 level measured at 72 hrs post-infection by ELISA
- Format: functional, organism-based
- settings: Human immunodeficiency virus 1, U-937, 72 h
assay.readout: IC50 (nM)
Numeric answer only, unit nM assumed.

Dear colleague, please send me the reported IC50 for CC(C)NC(=O)Cc1cc(-c2ccccc2)on1 when you can.
53
